Overview of recorded Product Ratio (%) acetaldehyde for various molecules
experiment description: Coupled enzyme assay (ADH, with and without MSAD): hydratase and hydratase/decarboxylase activity and product profile of Cg10062 and variants
Assay type: biochemical
measurement context: from Cg10062 activity in the presence and absence of MSAD; * from non-enzymatic decarboxylation of malonate semialdehyde

Cg10062(E114D): Previously described Cg10062 variant with E114D mutation, SEQ ID NO: 23 and 61 (protein, Cg10062(E114D) from Corynebacterium glutamicum codon-optimized for Escherichia coli) PTYTCWSQRIRISREAKQRIAEAITDAHHELAHAPKYLVQVIFNEVEPDSYFIAAQSASENHIWVQATIRSGRTEKQKEELLLRLTQEIALILGIPNEEVWVYITEIPGSNMTDYGRLLMEPGEEEKWFNSLPEGLRERLTELEGSSE: <1* %
Cg10062(E114N): Novel hydratase-only Cg10062 variant with E114N mutation, SEQ ID NO: 24 and 62 (protein, Cg10062(E114N) from Corynebacterium glutamicum codon-optimized for Escherichia coli) PTYTCWSQRIRISREAKQRIAEAITDAHHELAHAPKYLVQVIFNEVEPDSYFIAAQSASENHIWVQATIRSGRTEKQKEELLLRLTQEIALILGIPNEEVWVYITEIPGSNMTNYGRLLMEPGEEEKWFNSLPEGLRERLTELEGSSE: <1* %

// below: Product Ratio (%) acetaldehyde requested for another molecule
(Q) Bench note: what Product Ratio (%) acetaldehyde did Cg10062: Tautomerase superfamily enzyme from Corynebacterium glutamicum, SEQ ID NO: 21; His6-tagged form SEQ ID NO: 59 (protein, Cg10062 from Corynebacterium glutamicum codon-optimized for Escherichia coli) PTYTCWSQRIRISREAKQRIAEAITDAHHELAHAPKYLVQVIFNEVEPDSYFIAAQSASENHIWVQATIRSGRTEKQKEELLLRLTQEIALILGIPNEEVWVYITEIPGSNMTEYGRLLMEPGEEEKWFNSLPEGLRERLTELEGSSE show?
(A) 81%
